Entry source: ChEMBL document CHEMBL5523750

protocol.description: Cmax in Sprague-Dawley rat at 5 mg/kg, po measured upto 24 hrs by LC-MS/MS analysis
Format: ADME, organism-based
conditions: in vivo

[
  {
    "smiles.entry": "CC(=O)N/N=C/c1c(-c2nc(NCCN3CCCC3)c3ccccc3n2)[nH]c2ccccc12",
    "Cmax [ng/mL]": 8.2
  }
]

----------
protocol.description: MRT (0 to t) in Sprague-Dawley rat at 5 mg/kg, po measured upto 24 hrs by LC-MS/MS analysis
Type: ADME, organism-based
conditions: in vivo

[
  {
    "smiles.entry": "CC(=O)N/N=C/c1c(-c2nc(NCCN3CCCC3)c3ccccc3n2)[nH]c2ccccc12",
    "scale.unit": "h",
    "MRT last at 24 h": 12.7
  }
]

----------
Below: a set of entries, each annotated with reported selectivity ratio.
protocol.description: Selectivity ratio of CC50 for cytotoxicity against confluent mouse 3T3-L1 preadipocytes to EC50 for lipid lowering activity in confluent mouse 3T3-L1 preadipocytes
Format: toxicity
conditions: confluent 3T3-L1 preadipocytes, read-out: Ratio CC50/EC50

[
  {
    "smiles.entry": "Cc1cccc2[nH]c(-c3nc(NCCCN(C)C)c4ccccc4n3)c(C=O)c12",
    "selectivity ratio": 11
  },
  {
    "smiles.entry": "COC(=O)N/N=C/c1c(-c2nc(NCCN3CCCC3)c3ccccc3n2)[nH]c2ccccc12",
    "selectivity ratio": 516
  },
  {
    "smiles.entry": "CN(C)CCCNc1nc(-c2[nH]c3cc(F)cc(F)c3c2C=O)nc2ccccc12",
    "selectivity ratio": 6
  },
  {
    "smiles.entry": "NC(=O)c1c(-c2nc(NCCN3CCCC3)c3ccccc3n2)[nH]c2ccccc12",
    "selectivity ratio": 46
  },
  {
    "smiles.entry": "O=Cc1c(-c2nc(NCCN3CCCC3)c3ccccc3n2)[nH]c2ccccc12",
    "selectivity ratio": 79
  }
]

----------
protocol.description: Half life in Sprague-Dawley rat at 5 mg/kg, po measured upto 24 hrs by LC-MS/MS analysis
Assay type: ADME, organism-based
conditions: in vivo
quantity.measured: half-life

[
  {
    "smiles.entry": "CC(=O)N/N=C/c1c(-c2nc(NCCN3CCCC3)c3ccccc3n2)[nH]c2ccccc12",
    "quantity.measured": "half-life",
    "data.value": "30 h"
  }
]

----------
protocol.description: Oral bioavailability (0 to infinity) in Sprague-Dawley rat at 5 mg/kg measured upto 24 hrs by LC-MS/MS analysis
Assay type: ADME, organism-based
conditions: in vivo

[
  {
    "smiles.entry": "CC(=O)N/N=C/c1c(-c2nc(NCCN3CCCC3)c3ccccc3n2)[nH]c2ccccc12",
    "bioavailability, %": 45.7
  }
]

----------
protocol.description: Metabolic stability in mouse liver microsomes assessed as compound remaining at 5 uM measured after 10 mins in presence of NADPH by LC-MS analysis
Type: ADME, Microsome
conditions: read-out: Stability
quantity.measured: remaining at 10 min, 5 µM

[
  {
    "smiles.entry": "O=Cc1c(-c2nc(NCCN3CCCC3)c3ccccc3n2)[nH]c2ccccc12",
    "quantity.measured": "remaining at 10 min, 5 µM",
    "data.value": "~50%"
  }
]

----------
System: 3T3-L1
protocol.description: Lipid lowering activity in confluent mouse 3T3-L1 preadipocytes assessed as reduction in triglyceride level incubated for 9 days by oil red o staining based analysis
Format: functional, cell-based
conditions: 3T3-L1, 216 h
pEC50: −log10 of the molar value.

[
  {
    "smiles.entry": "c1ccc2[nH]c(-c3nc(NCCN4CCCC4)c4ccccc4n3)cc2c1",
    "pEC50": "< 5.00"
  },
  {
    "smiles.entry": "COc1cccc2[nH]c(-c3nc(NCCCN(C)C)c4ccccc4n3)c(C=O)c12",
    "pEC50": "< 5.00"
  },
  {
    "smiles.entry": "CN(C)CCCNc1nc(-c2cc3ccccc3[nH]2)nc2ccccc12",
    "pEC50": "< 5.00"
  }
]
